# study-target: GPR73 (prokineticin 1 receptor) (Homo sapiens)
# assay-method-text: PK1 functional assay: Ca2+ mobilization screening for PK1 antagonists on the FLIPR
# experimental-context: HEK 293 GPR73 cells; PK1 ligand preparation at its EC50; multiple values = multiple testing; read-out: Ca^2+ Mobilization IC50
pIC50: −log10 of the molar value.
Recorded pIC50 by entry
measure: pIC50

COc1ccc(Cn2c(NCc3cccnc3NCCSC)nc(=O)n(Cc3ccc(OC)cc3)c2=O)cc1 6.40
COc1ccc(Cn2c(NCc3ccc(C(F)(F)F)cn3)nc(=O)n(Cc3ccc(OC)cc3)c2=O)cc1 7.07

* * *

# study-target: GPR73 (prokineticin 1 receptor) (Homo sapiens, UniProt Q8TCW9)
# Sequence (Q8TCW9 whole entry, species assumed): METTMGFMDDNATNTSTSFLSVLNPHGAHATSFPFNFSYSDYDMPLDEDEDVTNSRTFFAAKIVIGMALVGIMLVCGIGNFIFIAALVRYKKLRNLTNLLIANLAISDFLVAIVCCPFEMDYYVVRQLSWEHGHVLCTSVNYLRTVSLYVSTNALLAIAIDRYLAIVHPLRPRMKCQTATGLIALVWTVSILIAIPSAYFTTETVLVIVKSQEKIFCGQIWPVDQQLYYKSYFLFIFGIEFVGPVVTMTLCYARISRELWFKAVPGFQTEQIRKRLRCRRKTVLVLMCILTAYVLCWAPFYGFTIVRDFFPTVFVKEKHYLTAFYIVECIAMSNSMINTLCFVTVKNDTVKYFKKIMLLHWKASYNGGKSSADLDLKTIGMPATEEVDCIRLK
# assay-method-text: PK1 functional assay: Ca2+ mobilization screening for PK1 antagonists on the FLIPR
# experimental-context: HEK 293 GPR73 cells; PK1 ligand preparation at its EC50; multiple values = multiple testing; read-out: Ca^2+ Mobilization IC50
Recorded IC50 by entry

molecule	study-target	IC50 [µM]
COc1ccc(Cn2c(=O)nc(NCc3cccnc3N)n(Cc3ccc4occc4c3)c2=O)cc1	GPR73 (prokineticin 1 receptor) (Homo sapiens, UniProt Q8TCW9)	0.232
COc1ccc(Cn2c(=O)nc(NCc3cccnc3N)n(Cc3ccc(OC(F)(F)F)cc3)c2=O)cc1	GPR73 (prokineticin 1 receptor) (Homo sapiens, UniProt Q8TCW9)	0.391
Cc1cc(C)c(CNc2nc(=O)n(Cc3ccc4snnc4c3)c(=O)n2Cc2ccc(OC(F)F)cc2)cn1	GPR73 (prokineticin 1 receptor) (Homo sapiens, UniProt Q8TCW9)	0.451
COc1ccc(Cn2c(OCc3c(C)cc(C)nc3N)cc(=O)n(Cc3ccc(OC)cc3)c2=O)cc1	GPR73 (prokineticin 1 receptor) (Homo sapiens, UniProt Q8TCW9)	0.83
Cc1cc(C)c(CNc2nc(=O)n(CCOc3ccccc3)c(=O)n2Cc2ccc(OC(F)F)cc2)cn1	GPR73 (prokineticin 1 receptor) (Homo sapiens, UniProt Q8TCW9)	1.7
COc1ccc(Cn2c(NCc3cnc(C)cc3C)nc(=O)n(Cc3ccc(OC(F)F)cc3)c2=O)cc1	GPR73 (prokineticin 1 receptor) (Homo sapiens, UniProt Q8TCW9)	0.668
COc1ccc(Cn2c(=O)nc(NCc3cccnc3N)n(Cc3ccc(SC)cc3)c2=O)cc1	GPR73 (prokineticin 1 receptor) (Homo sapiens, UniProt Q8TCW9)	0.131
COc1ccc(Cn2c(NCc3cccnc3N)nc(=O)n(CCOc3ccc(F)cc3)c2=O)cc1	GPR73 (prokineticin 1 receptor) (Homo sapiens, UniProt Q8TCW9)	1.13
COc1ccc(Cn2c(NCc3c(C)cc(C)nc3N)nc(=O)n(Cc3ccc4c(c3)OCO4)c2=O)cc1	GPR73 (prokineticin 1 receptor) (Homo sapiens, UniProt Q8TCW9)	0.043
COc1ccc(Cn2c(NCc3ccc(C(F)(F)F)nc3)nc(=O)n(Cc3ccc(OC)cc3)c2=O)cc1	GPR73 (prokineticin 1 receptor) (Homo sapiens, UniProt Q8TCW9)	0.194
Cc1cc(C)c(CNc2nc(=O)n(Cc3ccc4occc4c3)c(=O)n2Cc2ccc(OC(F)F)cc2)cn1	GPR73 (prokineticin 1 receptor) (Homo sapiens, UniProt Q8TCW9)	8.65
COC(=O)c1ccc(Cn2c(=O)nc(NCc3cnc(C)cc3C)n(Cc3ccc(OC)cc3)c2=O)cc1	GPR73 (prokineticin 1 receptor) (Homo sapiens, UniProt Q8TCW9)	6.31
COc1ccc(Cn2c(NC(C)c3ccccn3)nc(=O)n(Cc3ccc(OC)cc3)c2=O)cc1 (stereo not shown)	GPR73 (prokineticin 1 receptor) (Homo sapiens, UniProt Q8TCW9)	2.59
COc1ccc(Cn2c(NCc3cc(C)ccn3)nc(=O)n(Cc3ccc(OC)cc3)c2=O)cc1	GPR73 (prokineticin 1 receptor) (Homo sapiens, UniProt Q8TCW9)	2.03
COc1ccc(Cn2c(NCc3cccnc3NCc3ccco3)nc(=O)n(Cc3ccc(OC)cc3)c2=O)cc1	GPR73 (prokineticin 1 receptor) (Homo sapiens, UniProt Q8TCW9)	0.337
